Assay: ATG_NRF2_ARE_CIS: Attagene CIS-FACTORIAL HepG2 Assay for human Nuclear Factor Erythroid 2 Related Factor 2 (NFR2) response to Antioxidant Response Elements (ARE) (AID 2282992)
Conditions: HepG2 Attagene ARE/NRF2 reporter, transcription factor activity; actives raise or lower the signal
The source made the active and inactive calls. The calls were made as follows: active = hit-call score of the fitted dose curve at least 0.9, where 1 is the maximum; inactive = score below 0.9.
Result category, one only: T = active, F = inactive

# count of solved cases: 5
molecule="O=C=NC1CCC(CC2CCC(N=C=O)CC2)CC1 (stereo not given)" group_label=F
molecule=CC1(C)CCC(C)(C)c2cc(C(=O)Nc3ccc(C(=O)O)cc3)ccc21 group_label=F
molecule="CCC(O)CO (stereo not given)" group_label=F
molecule=Cc1c(Cl)c(=O)oc2cc(O)ccc12 group_label=T
molecule="CCCC1CCC(=O)O1 (stereo not given)" group_label=F

Please state the recorded outcome for this molecule: CCCCCNCCCCC
F

Query: recorded result category for Cc1ccc(C(=O)O)o1 in this test
F

Just curious, what result did CC(=O)/C=C/C1=C(C)CCCC1(C)C get here?
T

Recorded test outcome, item CC(C)[C@H]1CC[C@@H](C)CC1=O
F

Recorded test outcome, item CCO[Si](CCCS)(OCC)OCC
F

Please indicate how the test categorized CCC(C(=O)NC(N)=O)c1ccccc1 (stereo not given) .
F

How did this test come out for Cc1cccc(C)c1C ?
F

Assay outcome for O=C(O)c1cccc([N+](=O)[O-])c1 : what was it?
F

Per the assay record, what outcome was assigned to CCCC(C)C=O (stereo not given) ?
F

Dear all, I need the recorded test outcome for COc1cc(C(C)(C)C)c(O)c(C(C)(C)C)c1 , thank you.
F

Please state the recorded outcome for this molecule: CCOC(=S)SSC(=S)OCC
F

Hi team, can someone confirm the assay call for Nc1ccc(S(N)(=O)=O)cc1 ?
F

Recorded test call requested for CCCCCCCCCCCCOCCO
T
